testTarget: human NOX4 (Homo sapiens, UniProt Q9NPH5)
Construct: expressed in transfected cells; membrane fraction used
Sequence (Q9NPH5 whole entry): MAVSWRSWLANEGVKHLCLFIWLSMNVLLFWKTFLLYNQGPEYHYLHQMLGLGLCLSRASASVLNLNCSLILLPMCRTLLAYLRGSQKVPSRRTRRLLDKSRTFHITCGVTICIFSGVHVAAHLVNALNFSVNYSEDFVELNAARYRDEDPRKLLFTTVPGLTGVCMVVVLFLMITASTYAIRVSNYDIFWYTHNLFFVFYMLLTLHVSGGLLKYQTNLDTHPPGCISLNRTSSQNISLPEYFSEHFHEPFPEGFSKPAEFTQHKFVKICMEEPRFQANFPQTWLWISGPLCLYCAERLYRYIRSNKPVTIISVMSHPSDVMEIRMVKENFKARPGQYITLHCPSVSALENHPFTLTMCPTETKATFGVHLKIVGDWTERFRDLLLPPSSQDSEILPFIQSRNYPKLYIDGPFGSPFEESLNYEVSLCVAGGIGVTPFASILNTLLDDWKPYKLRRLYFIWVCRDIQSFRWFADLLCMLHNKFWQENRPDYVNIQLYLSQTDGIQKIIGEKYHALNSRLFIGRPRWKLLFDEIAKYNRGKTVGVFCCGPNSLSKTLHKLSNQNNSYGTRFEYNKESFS
Sequence (P13498 whole entry partner): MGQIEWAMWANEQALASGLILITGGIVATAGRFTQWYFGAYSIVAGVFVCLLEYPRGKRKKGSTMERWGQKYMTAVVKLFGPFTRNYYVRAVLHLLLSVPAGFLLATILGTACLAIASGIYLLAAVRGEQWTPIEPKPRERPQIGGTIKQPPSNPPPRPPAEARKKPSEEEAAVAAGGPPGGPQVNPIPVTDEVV
methodNotes: Cell free membrane based in vitro NOX4 assay: H2O2 production by membranes expressing human NOX4, measured with Amplex Red
Format: biochemical
assaySetup: 10.0 μM compound, read-out: Percentage inhibition at 10.0 μM
property: inhibition at 10 µM (%)
The reply should be a number in %, with the unit left off.

Previously resolved entries follow.
- molecule: "Cc1nn(C2CC2)c2[nH]c(-c3c(F)cccc3Cl)c(O)c(=O)c12 [Example 124]"
  testTarget: "human NOX4 (Homo sapiens, UniProt Q9NPH5)"
  inhibition at 10 µM (%): 81.9
- molecule: "Cc1nn(-c2cccc(F)c2)c2[nH]c(-c3ccccc3Cl)c(O)c(=O)c12 [Example 34]"
  testTarget: "human NOX4 (Homo sapiens, UniProt Q9NPH5)"
  inhibition at 10 µM (%): 100

Problem: Please report inhibition at 10 µM for the following molecule: CCc1nn(CCC2CCOCC2)c2[nH]c(-c3ccccc3Cl)c(O)c(=O)c12 [Example 212]
Solution: 71.7

Problem: // Input: CC(C)Cn1nc(C(F)(F)F)c2c(=O)c(O)c(-c3c(F)cccc3F)[nH]c21 [Example 111] . Output its inhibition at 10 µM only.
Solution: 81.7

Problem: Input Cc1nn(-c2ccccn2)c2[nH]c(-c3c(F)cccc3F)c(O)c(=O)c12 [Example 36] , output reported inhibition at 10 µM.
Solution: 100

Problem: Please look at this molecule and report its inhibition at 10 µM: Cn1nc(C(F)(F)F)c2c(=O)c(O)c(-c3ccc(F)cc3)[nH]c21 [Example 42]
Solution: 96.5

Problem: Report inhibition at 10 µM for CCc1nn(CCN2CCN(CC)CC2)c2[nH]c(-c3ccccc3Cl)c(O)c(=O)c12 [Example 173]
Solution: 69.7

Problem: # return recorded inhibition at 10 µM for entry COCCOc1ccc(-c2[nH]c3c(c(C)nn3C)c(=O)c2O)c(Cl)c1 [Example 65]
Solution: 63.1

* * *

testTarget: human NOX4 (Homo sapiens)
Construct: expressed in transfected cells; membrane fraction used
methodNotes: Cell free membrane based in vitro NOX4 assay: H2O2 production by membranes expressing human NOX4, measured with Amplex Red
Type: biochemical
assaySetup: 1.0 μM compound, read-out: Percentage inhibition at 1.0 μM
property: inhibition at 1 µM

Worked examples follow.
- compound: "Cn1nc(C(F)(F)F)c2c(=O)c(O)c(-c3ccc(Cl)cc3F)[nH]c21 [Example 52]"
  testTarget: "human NOX4 (Homo sapiens)"
  inhibition at 1 µM: "75.8%"
- compound: "Cn1nc2[nH]c(-c3ccccc3Cl)c(O)c(=O)c2c1Cc1ccccc1F [Example 57]"
  testTarget: "human NOX4 (Homo sapiens)"
  inhibition at 1 µM: "21.9%"
- compound: "Cc1nn(C2CCCC2)c2[nH]c(-c3c(F)cccc3F)c(O)c(=O)c12 [Example 127]"
  testTarget: "human NOX4 (Homo sapiens)"
  inhibition at 1 µM: "87.5%"
- compound: "CCc1nn(CCC2CCOCC2)c2[nH]c(-c3cccc(C(F)(F)F)c3F)c(O)c(=O)c12 [Example 213]"
  testTarget: "human NOX4 (Homo sapiens)"
  inhibition at 1 µM: "86.9%"
- compound: "CCn1cnc2c(=O)c(O)c(-c3c(F)cccc3F)[nH]c21 [Example 101]"
  testTarget: "human NOX4 (Homo sapiens)"
  inhibition at 1 µM: "69.7%"

Problem: State its inhibition at 1 µM: Cc1nn(C2CC2)c2[nH]c(-c3c(F)cccc3F)c(O)c(=O)c12 [Example 87]
Solution: 78.2%

Problem: Given CCc1nn(CCO)c2[nH]c(-c3c(F)cccc3F)c(O)c(=O)c12 [Example 203] , respond with its inhibition at 1 µM.
Solution: 82.5%

Problem: Look up and report measured inhibition at 1 µM for this entry: CCc1nn(C)c2[nH]c(-c3cnc(-c4ccc(F)cc4F)s3)c(O)c(=O)c12 [Example 187]
Solution: 77%

Problem: Return inhibition at 1 µM (reported value) for this compound: CCn1nc(C)c2c(=O)c(O)c(-c3ccccc3C(F)(F)F)[nH]c21 [Example 143]
Solution: 73.1%

Problem: Could you please provide reported inhibition at 1 µM for CCn1nc(C)c2c(=O)c(O)c(-c3ccc(OC)cc3F)[nH]c21 [Example 69] ? Thanks!
Solution: 67.2%

Problem: Identify inhibition at 1 µM associated with the compound O=c1c(O)c(-c2c(F)cccc2F)[nH]c2c1c(CO)nn2CC1CCOCC1 [Example 215]
Solution: 78.8%
